assay: Absorption rate from the digestive tract (urinary and biliary recovery after oral administration); type: in vivo; conditions: rat, 50 mg/kg, bile, bioassay, read-out: Recovery Rate (%) within 24 hours In the Bile
OUTCOME_MEASURE: dose excreted at 24 h (%)
Give bare numbers, in %.

So what's the measured dose excreted at 24 h for this one? CC(=O)OC(C)OC(=O)C1=C(C2SCCS2)CS[C@@H]2C(NC(=O)/C(=N\O)c3csc(N)n3)C(=O)N12 (stereo partly shown)
8.5

Where do these numbers come from? They come from patent US5081116A.
